The reported numbers originate from the supplement of paper PMC10307832.

# Test system: NCI-H2009
# assay-overview: relative viability (nuclei count vs DMSO), 5 days (fraction); higher = more cells survive
# condition-info: first compound 0.002 µM
measured-endpoint: relative viability
Just the number.

The compound CC(=O)O[C@@]12CO[C@@H]1C[C@H](O)[C@@]1(C)C(=O)[C@H](O)C3=C(C)[C@@H](OC(=O)[C@H](O)[C@@H](NC(=O)OC(C)(C)C)c4ccccc4)C[C@@](O)([C@@H](OC(=O)c4ccccc4)[C@H]21)C3(C)C [Docetaxel] + C[C@@H](Oc1cc(-c2cnn(C3CCNCC3)c2)cnc1N)c1c(Cl)ccc(F)c1Cl [Crizotinib] (partner 1 µM) showed relative viability equal to 0.426

Kindly consider the entry below.
The compound CC(=O)O[C@@]12CO[C@@H]1C[C@H](O)[C@@]1(C)C(=O)[C@H](O)C3=C(C)[C@@H](OC(=O)[C@H](O)[C@@H](NC(=O)OC(C)(C)C)c4ccccc4)C[C@@](O)([C@@H](OC(=O)c4ccccc4)[C@H]21)C3(C)C [Docetaxel] + O=C(CCCCCCC(=O)Nc1ccccc1)NO [Vorinostat] (partner 1 µM) showed relative viability equal to 0.707
